# ASSAY COMMENT: chemical genetic growth profiling, strain panel (AID 1159580);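 also: tested at 20 µM; growth read once vehicle control cultures reached saturation at 30 °C; 1 = growth at the plate median or of vehicle wells; lower values mean less growth of the strain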
# CONDITION SUMMARY: S. cerevisiae deletion strains, growth OD, locus YLR357W, strain rsc2
The whole screen tested about 5,500 compounds, of which about 2,000 (36%) were called active. Roughly 18% stayed inconclusive and do not appear here. Rule as the data show it: active = normalized growth mostly below about 0.91 (no sharp cut-off); inconclusive = no clear call, values can overlap the other calls; inactive = mostly above about 0.92. The list shows a part of the results.
Labels: y (active), n (inactive)

>>> qualitative_label("C[C@@H]1CC[C@H]2[C@@H](C)C(=O)O[C@@H]3O[C@@]4(C)CC[C@@H]1[C@]32OO4")
"n"
>>> qualitative_label("Cc1cn([C@H]2C[C@H](N=[N+]=[N-])[C@@H](CO)O2)c(=O)[nH]c1=O")
"n"
>>> qualitative_label("CNC(=O)O/N=C\\C(C)(C)SC")
"n"
>>> qualitative_label("Cc1cc(-n2c(=O)[nH]c(=O)n(C)c2=O)ccc1Oc1ccc(SC(F)(F)F)cc1")
"y"
>>> qualitative_label("O=c1[nH]cc(F)c(=O)[nH]1")
"y"
>>> qualitative_label("CC(C)(Oc1ccc(CCNC(=O)c2ccc(Cl)cc2)cc1)C(=O)O")
"n"
>>> qualitative_label("Cc1cc(O)cc(=O)o1")
"n"
>>> qualitative_label("COc1cccc2c1C(=O)c1c(O)c3c(c(O)c1C2=O)C[C@@](O)(C(=O)CO)C[C@@H]3OC1C[C@H](N)[C@H](O)[C@H](C)O1 (some centres undefined)")
"y"
>>> qualitative_label("NC(N)=N/N=C/c1c(Cl)cccc1Cl")
"n"
>>> qualitative_label("NNC(=O)c1ccncc1")
"n"
>>> qualitative_label("CC(C)CCCC1(C)C=Cc2c(O)c3c(c(CCC(C)C)c2O1)OC12C(CC4CC1C(C)(C)OC2(CCC(C)C(=O)O)C4O)C3=O (centres undefined)")
"n"
>>> qualitative_label("CC1OC(=O)C(C(C)C)NC(=O)C(C(C)C)OC(=O)C(C(C)C)NC(=O)C(C)OC(=O)C(C(C)C)NC(=O)C(C(C)C)OC(=O)C(C(C)C)NC(=O)C(C)OC(=O)C(C(C)C)NC(=O)C(C(C)C)OC(=O)C(C(C)C)NC1=O (centres undefined)")
"n"
>>> qualitative_label("CC1(C)CC[C@]2(C(=O)O)CC[C@]3(C)C(=CCC4[C@@]5(C)CC[C@H](O)[C@@](C)(CO)C5CC[C@]43C)C2C1 (some centres undefined)")
"n"
>>> qualitative_label("N=C(N)SCCN")
"y"

---

# ASSAY COMMENT: chemical genetic growth profiling, strain panel (AID 1159580)
# CONDITION SUMMARY: S. cerevisiae deletion strains, growth OD, locus YKL190W, strain CNB1
Hit rate of the full screen: of about 5,500 compounds, about 2,000 (36%) were called active. Not shown: some 18% with an inconclusive outcome. No stated cut-off is given here; in the data, active means normalized growth mostly below about 0.91 (no sharp cut-off); inconclusive means no clear call, values can overlap the other calls; inactive means mostly above about 0.92. The list shows a part of the results.
Labels: label 1 for active, label 0 for inactive

>>> qualitative_label("Cc1ccc(S(=O)(=O)NC(=O)NN2CC3CCCC3C2)cc1 (stereo not given)")
"label 0"
>>> qualitative_label("O=[N+]([O-])c1cnc(Sc2n[nH]c(-c3cccs3)n2)s1")
"label 1"
>>> qualitative_label("NC(=S)COc1ccccc1Cl")
"label 0"
>>> qualitative_label("COc1ccc(NC(=O)C(C)c2ccc(CC(C)C)cc2)cc1 (stereo not given)")
"label 1"
>>> qualitative_label("COC(=O)C[C@H]1C(C)(C)C2(O)OC34CC2C(=O)[C@]1(C)C3CC[C@]1(C)C4=CC(=O)O[C@H]1c1ccoc1 (stereo not given in full)")
"label 0"

---

# ASSAY COMMENT: chemical genetic growth profiling, strain panel (AID 1159580);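 also: tested at 20 µM; growth read once vehicle control cultures reached saturation at 30 °C; 1 = growth at the plate median or of vehicle wells; lower values mean less growth of the strain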
# CONDITION SUMMARY: S. cerevisiae deletion strains, growth OD, locus YLL041C, strain sdh2, active compounds read low
Hit rate of the full screen: of about 5,500 compounds, about 2,000 (36%) were called active. Another 18% or so got no clear call; they are omitted. The list shows a part of the results.
QUANTITY KIND: normalized growth

>>> experimental_value("NC12CC3CC(CC(C3)C1)C2")
0.993
>>> experimental_value("CC1(C)CC[C@]2(C(=O)O)CC[C@]3(C)C(=CCC4[C@@]5(C)CC[C@@H](O)C(C)(C)C5CC[C@]43C)C2C1 (some centres not stated)")
1.02
>>> experimental_value("CC(C)CCCC1(C)C=Cc2c(O)c3c(c(CCC(C)C)c2O1)OC12C(CC4CC1C(C)(C)OC2(CCC(C)C(=O)O)C4O)C3=O (configuration not stated)")
0.995
>>> experimental_value("COC(=O)C[C@H]1C(C)(C)C(=O)[C@@H]2CC3C4=CC(=O)O[C@@H](c5ccoc5)[C@]4(C)CCC3[C@@]1(C)C2=O (some centres not stated)")
0.978
>>> experimental_value("O=C1C(O)=C(O)C(=O)C(O)=C1O")
1.01
>>> experimental_value("N=C(N)c1ccc(OCCCCCOc2ccc(C(=N)N)cc2)cc1")
0.974
>>> experimental_value("CCC(C)C(NC)C(=O)O (configuration not stated)")
1.02

---

# ASSAY COMMENT: chemical genetic growth profiling, strain panel (AID 1159580);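 also: tested at 20 µM; growth read once vehicle control cultures reached saturation at 30 °C; 1 = growth at the plate median or of vehicle wells; lower values mean less growth of the strain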
# CONDITION SUMMARY: S. cerevisiae deletion strains, growth OD, locus YGR229C, strain SMI1, active compounds read low
Among all 5,500 compounds or so, about 2,000 (36%) were called active. About 18% were inconclusive and are not listed. The list shows a part of the results.
compounds and their reported normalized growth
QUANTITY KIND: normalized growth

>>> experimental_value("CSC(=CC(=O)c1ccc(Cl)cc1)SC")
"0.884 (active)"
>>> experimental_value("COC1=C[C@@H]2[C@@H]3Cc4ccc(OC)c(O)c4[C@]2(CCN3C)CC1=O")
"0.974 (inactive)"
>>> experimental_value("Cc1cccc(NC(=S)NCc2ccncc2)c1")
"0.992 (inactive)"
>>> experimental_value("COc1ccc2[nH]cc(CCN)c2c1")
"1.02 (inactive)"
>>> experimental_value("Cc1ccc(-c2cc(C(F)(F)F)nn2-c2ccc(S(N)(=O)=O)cc2)cc1")
"0.998 (inactive)"
>>> experimental_value("CN=c1nc(-c2ccccc2)n(-c2ccccc2)s1")
"0.905 (inactive)"
>>> experimental_value("COc1ccc2c3c([nH]c2c1)C(C)=NCC3")
"1.03 (inactive)"
>>> experimental_value("Cc1ccnc(NS(=O)(=O)c2ccc(N)cc2)n1")
"0.97 (inactive)"
>>> experimental_value("COc1ccc2[nH]c3c(c2c1)CCNC3")
"1.05 (inactive)"
>>> experimental_value("C#C[C@]1(O)CCC2C3CCC4=CC(=O)CC[C@@H]4C3CC[C@@]21CC (stereo partly drawn)")
"1.01 (inactive)"
>>> experimental_value("Nc1c2c(nc3ccccc13)CCCC2O (stereo not drawn)")
"1.02 (inactive)"
>>> experimental_value("O=C1C(O)=C(O)C(=O)C(O)=C1O")
"0.969 (inactive)"
>>> experimental_value("Cc1cn([C@H]2C[C@H](N=[N+]=[N-])[C@@H](CO)O2)c(=O)[nH]c1=O")
"1.01 (inactive)"
>>> experimental_value("S=C(NCc1cccnc1)Nc1ccccc1Cl")
"0.991 (inactive)"
>>> experimental_value("CCOC(=O)NC(=O)c1cn(Cc2cccs2)c(=O)[nH]c1=O")
"0.998 (inactive)"
>>> experimental_value("COc1cccc(-c2nc(C#N)c(N)o2)c1")
"0.938 (active)"
>>> experimental_value("Nc1ccc(-n2nc(C(F)(F)F)cc2C(F)(F)F)cc1")
"0.99 (inactive)"
>>> experimental_value("Nc1c2c(nc3ccccc13)CCCC2")
"1.02 (inactive)"

---

# ASSAY COMMENT: chemical genetic growth profiling, strain panel (AID 1159580);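 also: tested at 20 µM; growth read once vehicle control cultures reached saturation at 30 °C; 1 = growth at the plate median or of vehicle wells; lower values mean less growth of the strain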
# CONDITION SUMMARY: S. cerevisiae deletion strains, growth OD, locus YML032C, strain rad52
The campaign covered roughly 5,500 compounds. About 2,000 (36%) were called active. Inconclusive results (about 18%) are left out. No stated cut-off is given here; in the data, active means normalized growth mostly below about 0.91 (no sharp cut-off); inconclusive means no clear call, values can overlap the other calls; inactive means mostly above about 0.92. This is one part of the list.
Labels: active, inactive

>>> qualitative_label("O=c1[nH]cc(F)c(=O)[nH]1")
"active"
>>> qualitative_label("CC(=O)/C=C\\[C@@H]1[C@@]2(C)CCCC(C)(C)C2CC[C@@]1(C)O (some centres not stated)")
"inactive"
>>> qualitative_label("CC1(C)CC[C@]2(C(=O)O)CC[C@]3(C)C(=CCC4[C@@]5(C)CC[C@H](O)[C@@](C)(CO)C5CC[C@]43C)C2C1 (some centres not stated)")
"inactive"
>>> qualitative_label("OC(CCN1CCCC1)(c1ccccc1)C1CCCCC1 (configuration not stated)")
"inactive"
>>> qualitative_label("CC(=O)OC1CC(OC(C)=O)C2(C)C(CC(OC(C)=O)C3(C)C4=CC(=O)OC(=O)C4(C)CCC32)C1(C)C (configuration not stated)")
"inactive"
>>> qualitative_label("CC(=O)Nc1ccc(OCC(O)CNC(C)C)cc1 (configuration not stated)")
"inactive"
>>> qualitative_label("Nc1ccc(S(=O)(=O)Nc2ccnn2-c2ccccc2)cc1")
"inactive"

Source: PubChem BioAssay AID1159580
